B1: LINE1-full (parent)
chain: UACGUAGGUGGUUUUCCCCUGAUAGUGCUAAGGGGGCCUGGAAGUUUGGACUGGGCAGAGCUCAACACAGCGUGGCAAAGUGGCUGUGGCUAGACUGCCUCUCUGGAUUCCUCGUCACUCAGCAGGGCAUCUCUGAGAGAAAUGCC

variants of: B1; assay: self-cleavage, relative activity (ratio to wild type); higher = more cleavage; in vitro, sequencing; the parent is a self-cleaving ribozyme
EXPERIMENTAL_ENDPOINT: self-cleavage
Give only the figure.

self-cleavage for G10A G35A ?
0.92

self-cleavage for A59C C131A ?
1.15

self-cleavage for C37U U96A ?
0.04

self-cleavage for A22U U91A ?
0.3

self-cleavage for C19U A121U ?
1.03

self-cleavage for A94G U108C ?
0.61

self-cleavage for U14C G88U ?
0.06

self-cleavage for A24U G122U ?
1.33

self-cleavage for A78U A124U ?
2.15

self-cleavage for U108A A129U ?
1.92

self-cleavage for U39C G40C ?
1.48

self-cleavage for C16A U52C ?
0.69

self-cleavage for G27A A42G ?
0.99

self-cleavage for U109A A140G ?
0.96

self-cleavage for A92U U134C ?
0.71

self-cleavage for U13A G60C ?
0

self-cleavage for U47C U104C ?
2.24

self-cleavage for G70A U130A ?
0.15

self-cleavage for U62C C123G ?
0.07

self-cleavage for U108G U143C ?
1.14

self-cleavage for G8A A43G ?
1.08

self-cleavage for U15G A65G ?
0.1

Attribution: the RNAGym collection of RNA variant scans (doi:10.7554/elife.90254)
